# credit: ChEMBL document CHEMBL1287758

System: MCF7
assay-notes: Cytotoxicity against estrogen receptor-positive human MCF7 cells by MTT assay
Type: functional, cell-based
setup-conditions: Homo sapiens, MCF7; read-out: IC50
parameter: pIC50
Would you please state pIC50, meaning minus log10 of the concentration in mol/L, as a bare number?

Record excerpt, results attached:
O=C(CCCc1ccc(N(CCCl)CCCl)cc1)N[C@@H](CO)Cc1ccc(O)cc1: 4.50
COC(=O)[C@@H](Cc1ccc(O)cc1)NC(=O)CCCc1ccc(N(CCCl)CCCl)cc1: 4.30
O=C(CCCc1ccc(N(CCCl)CCCl)cc1)NCCCCCCCCCCC(=O)N[C@@H](CO)Cc1ccc(O)cc1: 4.79
O=C(CCCc1ccc(N(CCCl)CCCl)cc1)NCCCCCCCCCCC(=O)N[C@H](CO)Cc1ccc(O)cc1: 4.71
O=C(CCCc1ccc(N(CCCl)CCCl)cc1)N[C@H](CO)Cc1ccc(O)cc1: 4.47
COC(=O)[C@H](Cc1ccc(O)cc1)NC(=O)CCCc1ccc(N(CCCl)CCCl)cc1: 4.50
O=C(CCCc1ccc(N(CCCl)CCCl)cc1)NCCCCCC(=O)N[C@@H](CO)Cc1ccc(O)cc1: 4.17
COC(=O)[C@@H](Cc1ccc(O)cc1)NC(=O)CCCCCNC(=O)CCCc1ccc(N(CCCl)CCCl)cc1: 3.82

Lab note: measured pIC50 of COC(=O)[C@H](Cc1ccc(O)cc1)NC(=O)CCCCCCCCCCNC(=O)CCCc1ccc(N(CCCl)CCCl)cc1 was 4.17

Lab note: measured pIC50 of O=C(CCCc1ccc(N(CCCl)CCCl)cc1)NCCCCCC(=O)N[C@H](CO)Cc1ccc(O)cc1 was 4.21

Lab note: measured pIC50 of O=C(O)CCCc1ccc(N(CCCl)CCCl)cc1 was 3.88

Lab note: measured pIC50 of COC(=O)[C@H](Cc1ccc(O)cc1)NC(=O)CCCCCNC(=O)CCCc1ccc(N(CCCl)CCCl)cc1 was 4.59

* * *

Entries and their measured IC50 follow.
Tested on: MDA-MB-468
assay-notes: Cytotoxicity against estrogen receptor-negative human MDA-MB-468 cells by MTT assay
Type: functional, cell-based
setup-conditions: Homo sapiens, MDA-MB-468; read-out: IC50
# output: number + unit

O=C(CCCc1ccc(N(CCCl)CCCl)cc1)NCCCCCC(=O)N[C@H](CO)Cc1ccc(O)cc1: 77.3 µM
COC(=O)[C@H](Cc1ccc(O)cc1)NC(=O)CCCCCNC(=O)CCCc1ccc(N(CCCl)CCCl)cc1: 59 µM
O=C(O)CCCc1ccc(N(CCCl)CCCl)cc1: 147 µM
COC(=O)[C@H](Cc1ccc(O)cc1)NC(=O)CCCc1ccc(N(CCCl)CCCl)cc1: 62.5 µM

Lab note: measured IC50 of O=C(CCCc1ccc(N(CCCl)CCCl)cc1)N[C@H](CO)Cc1ccc(O)cc1 was 55.1 µM
